Documented % inhibition of BACE1 activity, short FRET substrate across a set of binders
Molecular target: murine BACE1 ECD; also: test concentration or dose not given here
Sequence (single chain, as listed by the source limits assumed): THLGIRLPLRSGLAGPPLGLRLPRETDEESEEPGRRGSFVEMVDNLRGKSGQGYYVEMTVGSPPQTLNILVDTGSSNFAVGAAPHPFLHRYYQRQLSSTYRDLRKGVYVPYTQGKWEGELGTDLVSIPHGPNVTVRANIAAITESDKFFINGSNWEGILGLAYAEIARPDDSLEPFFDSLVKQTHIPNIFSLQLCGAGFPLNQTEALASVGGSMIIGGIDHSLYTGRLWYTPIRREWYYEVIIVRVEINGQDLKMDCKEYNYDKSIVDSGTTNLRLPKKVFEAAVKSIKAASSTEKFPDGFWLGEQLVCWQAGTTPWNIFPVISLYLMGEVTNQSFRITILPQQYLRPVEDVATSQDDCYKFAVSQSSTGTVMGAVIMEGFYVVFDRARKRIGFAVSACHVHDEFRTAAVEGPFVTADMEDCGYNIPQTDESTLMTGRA
Test: cell-based or functional assay
observation type: % inhibition of BACE1 activity, short FRET substrate

binder	meas value
5880 (antibody, V domains shown, anti-BACE1 IgG) VH: EVQLLESGGGLVQPGGSLRLSCAASGFTFGSYAMTWVRQAPGKGLEWVSAISGSGISTPYADSVKGRFTISRDNSKNTLYLQMNSLRAEDTAVYYCAKGAGHGSYVKGWFDPWGQGTLVTVSS VL: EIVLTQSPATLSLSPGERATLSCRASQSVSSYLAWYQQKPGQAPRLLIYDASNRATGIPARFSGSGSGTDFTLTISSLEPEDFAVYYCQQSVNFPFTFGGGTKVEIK	97%
5876 (antibody, V domains shown, anti-BACE1 IgG) VH: EVQLLESGGGLVQPGGSLRLSCAASGFTFSSRAMGWVRQAPGKGLEWVSATSGSGGSIYYADSVKGRFTISRDNSKNTLYLQMNSLRAEDTAVYYCAKGGSQWLYAPGSWFDPWGQGTLVTVSS VL: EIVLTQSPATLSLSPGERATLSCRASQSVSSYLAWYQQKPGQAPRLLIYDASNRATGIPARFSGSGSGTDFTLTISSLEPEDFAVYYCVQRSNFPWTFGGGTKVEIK	46%
5881 (antibody, V domains shown, anti-BACE1 IgG) VH: EVQLLESGGGLVQPGGSLRLSCAASGFTFSKYAMSWVRQAPGKGLEWVSAISGSGISTPYADSVKGRFTISRDNSKNTLYLQMNSLRAEDTAVYYCAKGAGHGSYVKGWFDPWGQGTLVTVSS VL: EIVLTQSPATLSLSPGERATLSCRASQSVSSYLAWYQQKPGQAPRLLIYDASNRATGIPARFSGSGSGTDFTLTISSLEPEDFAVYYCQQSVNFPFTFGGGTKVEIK	98%

From: patent US20180057604A1
